Values of IC50 for UniProt P10635, collected from a number of published sources:

Examples from the recorded data:
- NS(=O)(=O)OCCCCCCCOS(N)(=O)=O: 699 µM
- CC(C)n1ncnc1-c1cn2c(n1)-c1ccc(O[C@@H](C)C(N)=O)cc1OCC2: > 10 µM

Req: Bench note: what IC50 did COc1cc(N2C(=O)N(Cc3c(F)cc(F)cc3F)c3ncccc3S2(=O)=O)cnc1OC show?
Resp: > 10 µM

Req: Bench note: what IC50 did Cn1cnc(S(=O)(=O)N2C[C@@H]3[C@H](C2)[C@@]3(CNC(=O)c2ccc(Cl)cc2Cl)c2ccccn2)c1 show?
Resp: > 30 µM

Req: Bench note: what IC50 did COc1cc2nccc(Oc3ccc4c(C(=O)Nc5ccc(Cl)cc5)cccc4c3F)c2cc1OC show?
Resp: > 50 µM

Req: Bench note: what IC50 did CCn1c(CO)nn(-c2nc(O[C@@H](C)C(F)(F)F)c(C(=O)Nc3c(C)cnc(OC)c3Cl)cc2F)c1=O show?
Resp: > 10 µM

Req: Bench note: what IC50 did CC(C)c1cc(Nc2nc(N3CCC[C@H](N)C3)ncc2C(N)=O)cc(C(C)C)n1 show?
Resp: > 20 µM

Req: Bench note: what IC50 did c1ccc2oc(-c3csc(C4CCN(Cc5nc6ncccc6[nH]5)CC4)n3)cc2c1 show?
Resp: > 20 µM

Req: Bench note: what IC50 did Cc1nc2ccccc2n1C1CCN(CCC(c2ccccc2)c2ccccc2)CC1 show?
Resp: 0.04 µM
